# Tested on: OVCAR-4 ovarian
# test_protocol: NCI-60 one-dose screen, 48 h (100 = growth as untreated, 0 = no growth, -100 = all killed)
# assay_setup: 10 µM unless noted
# Description: Growth inhibition of the OVCAR-4 human tumor cell line is measured as a screen for anti-cancer activity. Cells are grown in 96 well plates and exposed to the test compound for 48 hours. Compounds are tested at a single concentration, which is 10^-5 M for most compounds. The reported endpoint is percent growth (GI% or GIPRCNT), where numbers from 0 - 100% represent growth inhibition, and numbers from -100% - 0 represent cell death. For example, a value of 40 represents 60% growth inhibition. […]
The panel holds about 83,000 compounds, 20% with a hit somewhere; the sample as a whole holds those more often.
observable: growth (%)
Response body: numeric value in %, unit text excluded.

O=C(C1CCC1)N1N=C(c2ccc(-n3ccc(C(F)(F)F)n3)cc2)CC1c1ccc[nH]1 (centres undefined) : 112
Cc1cc2c(C(=O)NCC#N)cccc2n1-c1nc2c(c(NCc3ccccc3)n1)CCCC2 : -8.8

Consider the molecule O=C(c1nc2ccccc2[nH]1)C1C(c2ccc(Br)cc2)C2CC3CCCC[C@H]3N2[C@@]12C(=O)Nc1cc(Cl)ccc12 (some centres undefined) . State its measured growth.
34.7

Consider the molecule CC(=O)c1cc2c(N)c(C(=O)Nc3cccc4ccncc34)sc2nc1C . State its measured growth.
110

* * *

# System: 786-0 renal
# test_protocol: NCI-60 one-dose screen, 48 h
# assay_setup: 10 µM unless noted
Compounds without any hit were thinned out: in the full panel of roughly 83,000, 20% have a hit. Calls of active or inactive are those of the source. The calls were made as follows: active = growth percent below 10; inactive = the rest.
Give your call using only these classes: active, inactive

Example results:
Cc1ccc(C(=O)/C(=C\c2ccc([N+](=O)[O-])cc2)S(=O)Cc2ccc(F)cc2)cc1 (stereo unspecified) : active
CC(C)(C)CC(C)(C)n1nnnc1C(NC12CC3CC(CC(C3)C1)C2)c1ccccc1 (stereo unspecified) : inactive
O=C1c2c(c3c4cccc(F)c4[nH]c3c3ccc4ccccc4c23)C(=O)N1O : inactive

How did this test come out for O=C(Nc1ccccc1)Nc1ccc2cc3ccc(NC(=O)Nc4ccccc4)cc3nc2c1 ?
inactive

How did this test come out for COc1ccc(C(=O)Nc2cccc(C3CCc4c(cc(OC)c(OC)c4OC)O3)c2)cc1 (stereo unspecified) ?
inactive

* * *

# System: MDA-MB-435 melanoma
# test_protocol: NCI-60 one-dose screen, 48 h (100 = growth as untreated, 0 = no growth, -100 = all killed)
# assay_setup: 10 µM unless noted
About 83,000 compounds went through this panel and 20% of them were active in at least one assay; those are over-represented in the sample as a whole.
Each item that follows carries a reported growth.
Response body: numeric value in %, unit text excluded.

These recorded examples may help you get a feel for the data.
C=C1C(=O)O[C@H]2[C@H]1CC/C(COC(=O)NCc1c[nH]c3ccc(F)cc13)=C\CC[C@@]1(C)O[C@@H]21 : -63.5
Cc1ccc(-n2nc3c(c(C#N)c2=O)CC(c2ccccc2[N+](=O)[O-])C([N+](=O)[O-])=C3O)cc1 (stereo not given) : 96.7
CCOc1cccc(-c2nc(N)nc(Nc3ccccc3SSc3ccccc3Nc3nc(N)nc(-c4cccc(OCC)c4)n3)n2)c1 : 88.8

Then there is this molecule:
State, for MDA-MB-435 melanoma, measured growth of the molecule listed here: COC(=O)N[C@H]1CCc2c(Cl)c(OC)c(OC)c(OC)c2-c2ccc(SC)c(=O)cc21
-49.9
